Target: MAP2K1 (human)
Assay: KINOMEscan competition binding
Settings: compound 10.0 µM
Experimental Readout: kinase still bound, per cent of control (%)
Numeric only. Scale: %

O=c1[nH]c2ccccc2n1C1CCN(Cc2ccc(-c3nc4cc5[nH]cnc5cc4nc3-c3ccccc3)cc2)CC1 : 83

The record that follows has no kinase still bound, per cent of control shown yet.
Return reported kinase still bound, per cent of control; argument: N#Cc1cc(-c2ccnc(Nc3ccc(-n4cnc(-c5cccnc5)n4)cc3)n2)cc(N2CCOCC2)c1 50

---

Target: HUNK (human) (UniProt P57058)
Sequence (P57058 whole entry, looked up): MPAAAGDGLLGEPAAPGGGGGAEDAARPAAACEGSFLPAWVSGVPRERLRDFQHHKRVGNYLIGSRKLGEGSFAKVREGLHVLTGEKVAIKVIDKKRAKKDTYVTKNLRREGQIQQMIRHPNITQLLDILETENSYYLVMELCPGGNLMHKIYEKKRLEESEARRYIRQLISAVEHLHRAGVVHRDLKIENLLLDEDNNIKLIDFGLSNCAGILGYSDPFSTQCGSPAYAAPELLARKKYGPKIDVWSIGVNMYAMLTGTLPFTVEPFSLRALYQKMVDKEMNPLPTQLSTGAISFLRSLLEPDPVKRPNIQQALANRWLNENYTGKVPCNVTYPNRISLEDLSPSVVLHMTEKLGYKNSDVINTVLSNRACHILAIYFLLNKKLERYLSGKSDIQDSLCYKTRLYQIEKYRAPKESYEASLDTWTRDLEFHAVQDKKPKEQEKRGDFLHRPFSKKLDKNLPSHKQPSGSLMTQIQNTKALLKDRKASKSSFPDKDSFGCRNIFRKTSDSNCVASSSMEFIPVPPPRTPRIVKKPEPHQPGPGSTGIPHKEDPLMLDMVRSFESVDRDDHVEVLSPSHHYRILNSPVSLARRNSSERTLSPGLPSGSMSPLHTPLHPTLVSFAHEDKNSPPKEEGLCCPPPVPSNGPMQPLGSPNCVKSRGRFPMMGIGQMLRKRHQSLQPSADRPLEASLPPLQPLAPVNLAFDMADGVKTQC
Experiment: KINOMEscan competition binding
Conditions: compound 10.0 µM
Experimental Readout: kinase still bound, per cent of control (%)
Response body: numeric value in %, unit text excluded.

Example results:
CCN(CCO)CCCOc1ccc2c(Nc3cc(CC(=O)Nc4cccc(F)c4)[nH]n3)ncnc2c1 : 94
CCc1nc(-c2cccc(C)c2)c(-c2ccnc(NC(=O)c3ccccc3)c2)s1 : 15
CC(=O)c1c(C)c2cnc(Nc3ccc(N4CCNCC4)cn3)nc2n(C2CCCC2)c1=O : 77
COc1cc2ncnc(Nc3cccc(Cl)c3)c2cc1OC : 69
CCOc1cc(N2CCC(O)CC2)ccc1Nc1ncc2c(n1)N(C)c1ccccc1C(=O)N2C : 100

Please provide the recorded kinase still bound, per cent of control for O=c1[nH]c2ccccc2n1C1CCN(Cc2ccc(-c3nc4cc5[nH]cnc5cc4nc3-c3ccccc3)cc2)CC1 , tested on HUNK (human) (UniProt P57058). 72
